testedSystem: T1, biotin-labelled EZH2 protein (UniProt Q15910 1-746, limits assumed, biotin label (EZ-link NHS-PEO4-Biotinylation kit))
T1 construct: Probe in solution (1 ug/ml) on the KDM2B peptide microarray; also called NHS-PEO4-Biotinylation-labelled EZH2 protein; recombinant protein
T1 sequence (Q15910 whole entry): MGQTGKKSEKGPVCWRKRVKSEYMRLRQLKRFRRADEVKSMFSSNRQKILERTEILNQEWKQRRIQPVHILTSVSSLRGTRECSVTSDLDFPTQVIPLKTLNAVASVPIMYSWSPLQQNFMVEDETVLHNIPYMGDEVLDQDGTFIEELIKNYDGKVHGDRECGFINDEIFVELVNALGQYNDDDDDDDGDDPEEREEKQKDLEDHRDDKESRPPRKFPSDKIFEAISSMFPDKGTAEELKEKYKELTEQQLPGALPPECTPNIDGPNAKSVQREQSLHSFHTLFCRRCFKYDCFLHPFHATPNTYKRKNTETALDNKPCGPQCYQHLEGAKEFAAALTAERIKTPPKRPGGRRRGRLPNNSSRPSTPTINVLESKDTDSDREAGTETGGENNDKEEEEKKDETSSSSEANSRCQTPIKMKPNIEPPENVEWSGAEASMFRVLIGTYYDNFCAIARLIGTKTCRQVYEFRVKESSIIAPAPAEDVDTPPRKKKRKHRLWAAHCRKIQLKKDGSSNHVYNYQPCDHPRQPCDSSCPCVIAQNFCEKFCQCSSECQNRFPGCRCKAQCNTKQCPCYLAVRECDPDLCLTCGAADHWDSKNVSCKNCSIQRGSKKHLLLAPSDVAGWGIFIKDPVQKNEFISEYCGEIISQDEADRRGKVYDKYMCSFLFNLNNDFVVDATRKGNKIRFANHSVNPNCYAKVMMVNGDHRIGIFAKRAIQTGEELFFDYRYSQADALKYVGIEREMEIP
protocolText: KDM2B peptide array probed with biotin-EZH2 1 ug/ml, SA-HRP/ECL; Remark: noise;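 note: 100% is the highest background-corrected spot optical density on the membrane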
property: Intensity (%)
# unit: % | format: bare number

Find the measured Intensity (%) of TWNRWCCDKRLWTRI [peptide 219] and report it.
0.56

Find the measured Intensity (%) of EIVSVRGFSLEEKLR [peptide 13] and report it.
0.05

Find the measured Intensity (%) of ISKKQLSWLINRLPG [peptide 228] and report it.
0

Find the measured Intensity (%) of NRPGQMDNRSKLRNI [peptide 241] and report it.
0

Find the measured Intensity (%) of DGSTSPTSTPSEDQE [peptide 89] and report it.
0

Find the measured Intensity (%) of LSWTNISKKQLSWLI [peptide 227] and report it.
0

Find the measured Intensity (%) of VTDQCLSFFKRCGNI [peptide 257] and report it.
0.23

Find the measured Intensity (%) of PTLHNLALYEEWVLS [peptide 54] and report it.
0

Find the measured Intensity (%) of SEDQEALGKKPKAPA [peptide 91] and report it.
0

Find the measured Intensity (%) of DRTRVQPKFRYPFYY [peptide 70] and report it.
0.02

Find the measured Intensity (%) of VTKEGCEQFIAEMSV [peptide 262] and report it.
0

Find the measured Intensity (%) of EEAPRRRSDEHSKKV [peptide 155] and report it.
0

Find the measured Intensity (%) of EFESATQRPIDRQRY [peptide 8] and report it.
0

Find the measured Intensity (%) of PPKTRESDHSRSSSP [peptide 181] and report it.
0.3

Find the measured Intensity (%) of RELRHQLGPSLRSPP [peptide 202] and report it.
0.64

Find the measured Intensity (%) of IIRRQPVSLDLSWTN [peptide 225] and report it.
0

Find the measured Intensity (%) of RVISRPPPSVSPPKC [peptide 205] and report it.
0.39

Find the measured Intensity (%) of VQFGQVEEKLLQKLS [peptide 266] and report it.
0

Find the measured Intensity (%) of IQMERHVIRPPPISP [peptide 208] and report it.
0

Find the measured Intensity (%) of KDMKKFGGPGRMKQS [peptide 127] and report it.
0

Find the measured Intensity (%) of LSWLINRLPGLRDLV [peptide 229] and report it.
0

Find the measured Intensity (%) of GGTSVWYHVFRGGKI [peptide 50] and report it.
0

Find the measured Intensity (%) of ELSGRKRASSLQTSP [peptide 163] and report it.
0
